These entries and their values trace back to ChEMBL document CHEMBL2016462.

Assay: Permeability from apical to basolateral side in human Caco2 cells
Type: ADME, cell-based
Details: Caco-2, read-out: permeability
PROPERTY_LABEL: Papp A→B (×10⁻⁶ cm/s)

                         compound_structure  property_label  unit_abbreviation  experimental_result
0  CSc1ccccc1Nc1nc(N2CCNCC2)nc2c(NCC3CC3)ncnc12        Papp A→B         ×10⁻⁶ cm/s                  0.3

###

Target: Death-associated protein kinase 3 (Homo sapiens, UniProt O43293)
Sequence (O43293 whole entry): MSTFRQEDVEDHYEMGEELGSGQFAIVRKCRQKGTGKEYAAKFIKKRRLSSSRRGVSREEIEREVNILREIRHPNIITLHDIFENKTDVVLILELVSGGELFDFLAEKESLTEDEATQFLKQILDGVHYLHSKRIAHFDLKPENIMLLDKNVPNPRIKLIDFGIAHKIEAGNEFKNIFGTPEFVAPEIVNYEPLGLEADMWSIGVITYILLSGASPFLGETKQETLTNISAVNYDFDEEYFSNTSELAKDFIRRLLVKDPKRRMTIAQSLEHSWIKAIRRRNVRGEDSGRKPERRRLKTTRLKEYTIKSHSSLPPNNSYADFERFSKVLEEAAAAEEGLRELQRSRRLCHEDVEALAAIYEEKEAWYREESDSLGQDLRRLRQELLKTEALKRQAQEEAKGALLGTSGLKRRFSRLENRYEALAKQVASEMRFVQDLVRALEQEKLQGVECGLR
PROPERTY_LABEL: IC50

In [3]: df
Out[3]:
                         compound_structure  experimental_result
0  CSc1ccccc1Nc1nc(N2CCNCC2)nc2c(NCC3CC3)ncnc12              > 40 µM
